biological target: Voltage-gated L-type calcium channel (Homo sapiens, UniProt Q13936+Q13698+Q01668+O60840); assay: Inhibition of voltage-dependent L-type calcium channel in human U373MG cells assessed as protection against oxygen glucose deprivation/reperfusion-induced injury by measuring recovery of cell viability at 20 uM administered at onset of reperfusion period measured after 16 hrs by alamar blue assay relative to control; format: cell-based
EXPERIMENTAL READOUT: Activity (%)
// return numeric value only (unit: %, not printed)

Some compounds with known Activity results, for comparison:
CCOC(=O)C1=C(C)NC(C)=C(C(=O)OCC)C1c1c(-c2ccc(F)cc2)nc2sccn12 | 43.6
COC(=O)C1=C(C)NC(C)=C(C(=O)OC)C1c1c(-c2cc(OC)ccc2OC)nc2sc(Cl)cn12 | 99.6
CCOC(=O)C1=C(C)NC(C)=C(C(=O)OCC)C1c1c(-c2cc([N+](=O)[O-])c(Cl)cc2Cl)nc2sc(Cl)cn12 | 15.4
CCOC(=O)C1=C(C)NC(C)=C(C(=O)OCC)C1c1c(-c2cc(OC)ccc2OC)nc2sccn12 | 65.7
COC(=O)C1=C(C)NC(C)=C(C(=O)OC)C1c1ccccc1[N+](=O)[O-] | 73.7

Reported Activity of CCOC(=O)C1=C(C)NC(C)=C(C(=O)OCC)C1c1c(-c2ccc(F)cc2)nc2sc(C)cn12 : 13.2

Reported Activity for CCOC(=O)C1=C(C)NC(C)=C(C(=O)OCC)C1c1c(-c2ccc([N+](=O)[O-])cc2)nc2sc(Cl)cn12 was 26.1

Entry COC(=O)C1=C(C)NC(C)=C(C(=O)OC)C1c1c(-c2ccc(OC(F)(F)F)cc2)nc2sccn12 — recorded Activity = 54.2

// Activity value for CCOC(=O)C1=C(C)NC(C)=C(C(=O)OCC)C1c1c(-c2ccc(F)cc2)nc2sc(Cl)cn12 : 33.7

* * *

Catalogue of Activity values
target: Voltage-gated L-type calcium channel (Homo sapiens, UniProt Q13936+Q13698+Q01668+O60840); assay: Inhibition of voltage-dependent L-type calcium channel in human SH-SY5Y cells assessed as protection against glutamate-induced excitotoxicity by measuring recovery of cell viability at 20 uM measured after 24 hrs by alamar blue-based fluorescence method relative to control
Kindly provide the numeric value in % only, without the unit symbol.

Before answering, review these 5 worked examples.
CCOC(=O)C1=C(C)NC(C)=C(C(=O)OCC)C1c1c(-c2cc(OC)ccc2OC)nc2sc(Br)cn12 | 57.6
CCOC(=O)C1=C(C)NC(C)=C(C(=O)OCC)C1c1c(-c2cc([N+](=O)[O-])c(Cl)cc2Cl)nc2sc(CC)cn12 | 41.6
COC(=O)C1=C(C)NC(C)=C(C(=O)OC)C1c1c(C(F)(F)F)nc2sc(C)cn12 | 44.1
CCOC(=O)C1=C(C)NC(C)=C(C(=O)OCC)C1c1c(-c2ccc(Br)c([N+](=O)[O-])c2)nc2sccn12 | 59.2
CCOC(=O)C1=C(C)NC(C)=C(C(=O)OCC)C1c1c(-c2ccc(F)cc2)nc2sccn12 | 59.3

We now examine a further compound.
Here CCOC(=O)C1=C(C)NC(C)=C(C(=O)OCC)C1c1c(-c2ccc(F)cc2)nc2sc(C)cn12 was tested on Voltage-gated L-type calcium channel (Homo sapiens, UniProt Q13936+Q13698+Q01668+O60840), and its Activity came to 43.1

* * *

system: Left cardiac atrium; assay: Negative inotropic activity in guinea pig left atrium assessed as decrease in developed tension at 0.001 to 100 uM relative to control; format: ADME, tissue-based; conditions: Cavia porcellus
pEC50: −log10 of the molar value.
Quick rule for you: pEC50 at 7 or higher means criterion met, lower means criterion not met.

CCOC(=O)C1=C(C)NC(C)=C(C(=O)OCC)C1c1c(-c2ccc([N+](=O)[O-])cc2)nc2sc(F)cn12 | criterion met
CCOC(=O)C1=C(C)NC(C)=C(C(=O)OCC)C1c1c(-c2ccc([N+](=O)[O-])cc2)nc2sc(Cl)cn12 | criterion not met

// query Could you please find out whether CCOC(=O)C1=C(C)NC(C)=C(C(=O)OCC)C1c1c(-c2cc(OC)ccc2OC)nc2sc(C)cn12 has pEC50 that meets 7 or exceeds it?
// result criterion not met

// query Determine whether this compound has pEC50 no lower than 7: CCOC(=O)C1=C(C)NC(C)=C(C(=O)OCC)C1c1c(-c2cc(OC)cc(OC)c2)nc2sc(Br)cn12
// result criterion met

// query pEC50 >= 7 for CCOC(=O)C1=C(C)NC(C)=C(C(=O)OCC)C1c1c(-c2ccc(F)cc2)nc2sc(Cl)cn12 ?
// result criterion met

// query Quick check: does CCOC(=O)C1=C(C)NC(C)=C(C(=O)OCC)C1c1c(-c2ccccc2F)nc2sccn12 have pEC50 greater than or equal to 7?
// result criterion not met

// query Form field: pEC50 at least 7? Entry: COC(=O)C1=C(C)NC(C)=C(C(=O)OC)C1c1c(-c2cc(Br)c(OC)cc2OC)nc2sccn12
// result criterion not met

* * *

test system: Right cardiac atrium; experiment: Negative chronotropic activity in guinea pig spontaneously beating right atrium assessed as decrease in atrial rate at 10^-5 M relative to control; format: ADME, tissue-based, Cavia porcellus; design: scale not given: the % may be the effect or the level left; conditions: 10 µM
Threshold 80%: Activity strictly smaller gives label 1, otherwise label 0.

Use the examples below as a reference point.
CCOC(=O)C1=C(C)NC(C)=C(C(=O)OCC)C1c1c(-c2ccc(Cl)c([N+](=O)[O-])c2)nc2sc(C)cn12 | label 1
CCOC(=O)C1=C(C)NC(C)=C(C(=O)OCC)C1c1c(-c2ccc(OC)c(OC)c2)nc2sc(Br)cn12 | label 0

Turning to the following molecule.
// query Given the entry CCOC(=O)C1=C(C)NC(C)=C(C(=O)OCC)C1c1c(-c2cc([N+](=O)[O-])c(Cl)cc2Cl)nc2sc(CC)cn12 , would its reported Activity be below 80%?
// result label 1

* * *

target: Voltage-gated L-type calcium channel (Homo sapiens, UniProt Q13936+Q13698+Q01668+O60840); experiment: Inhibition of voltage-dependent L-type calcium channel in human U373MG cells assessed as protection against oxygen glucose deprivation/reperfusion-induced injury by measuring recovery of cell viability at 20 uM administered at onset of reperfusion period measured after 16 hrs by alamar blue assay relative to control; type: cell-based
EXPERIMENTAL READOUT: Activity

Summary for this compound, COC(=O)C1=C(C)NC(C)=C(C(=O)OC)C1c1c(-c2ccccc2OC)nc2sccn12 : Activity is < 5%

Activity reported for this compound CCOC(=O)C1=C(C)NC(C)=C(C(=O)OCC)C1c1c(-c2ccc(OC(F)(F)F)cc2)nc2sc(Br)cn12 : 23.8%

Query CCOC(=O)C1=C(C)NC(C)=C(C(=O)OCC)C1c1c(-c2ccc([N+](=O)[O-])cc2)nc2sc(F)cn12 yields Activity of 28.5%

* * *

biological target: Voltage-gated L-type calcium channel (Homo sapiens, UniProt Q13936+Q13698+Q01668+O60840); assay: Inhibition of voltage-dependent L-type calcium channel in human U373MG cells assessed as protection against oxygen glucose deprivation/reperfusion-induced injury by measuring recovery of cell viability at 1 uM administered at onset of reperfusion period measured after 16 hrs by alamar blue assay relative to control; format: cell-based
Consider the following compounds and their measured Activity readings.
Respond numerically; units are % and should not be typed.

Observed Activity on Voltage-gated L-type calcium channel (Homo sapiens, UniProt Q13936+Q13698+Q01668+O60840), entry CCOC(=O)C1=C(C)NC(C)=C(C(=O)OCC)C1c1c(-c2ccc(F)cc2)nc2sccn12 , equals 36.6

Field Activity (system: Voltage-gated L-type calcium channel (Homo sapiens, UniProt Q13936+Q13698+Q01668+O60840)) for entry COC(=O)C1=C(C)NC(C)=C(C(=O)OC)C1c1c(C(F)(F)F)nc2sccn12 = 73

Record CCOC(=O)C1=C(C)NC(C)=C(C(=O)OCC)C1c1c(-c2ccc(OC)c(OC)c2)nc2sc(Br)cn12 ; system Voltage-gated L-type calcium channel (Homo sapiens, UniProt Q13936+Q13698+Q01668+O60840); Activity = 9

The value of Activity recorded for CCOC(=O)C1=C(C)NC(C)=C(C(=O)OCC)C1c1c(-c2ccc(F)cc2)nc2sc(Cl)cn12 when tested on Voltage-gated L-type calcium channel (Homo sapiens, UniProt Q13936+Q13698+Q01668+O60840) reads 32.6

Assay Voltage-gated L-type calcium channel (Homo sapiens, UniProt Q13936+Q13698+Q01668+O60840), sample CCOC(=O)C1=C(C)NC(C)=C(C(=O)OCC)C1c1c(-c2ccc([N+](=O)[O-])cc2)nc2sc(F)cn12 , Activity read: 22.2

Measured Activity (Voltage-gated L-type calcium channel (Homo sapiens, UniProt Q13936+Q13698+Q01668+O60840)), entry COC(=O)C1=C(C)NC(C)=C(C(=O)OC)C1c1c(-c2cc(OC)ccc2OC)nc2sc(Cl)cn12 : 78.8

Summary line: CCOC(=O)C1=C(C)NC(C)=C(C(=O)OCC)C1c1c(-c2ccc(OC(F)(F)F)cc2)nc2sc(Br)cn12 , Voltage-gated L-type calcium channel (Homo sapiens, UniProt Q13936+Q13698+Q01668+O60840), reported Activity = 14.2

Summary line: CCOC(=O)C1=C(C)NC(C)=C(C(=O)OCC)C1c1c(-c2cc([N+](=O)[O-])c(Cl)cc2Cl)nc2sc(Cl)cn12 , Voltage-gated L-type calcium channel (Homo sapiens, UniProt Q13936+Q13698+Q01668+O60840), reported Activity = 16.5

Case CCOC(=O)C1=C(C)NC(C)=C(C(=O)OCC)C1c1c(-c2cc(OC)ccc2OC)nc2sccn12 , Voltage-gated L-type calcium channel (Homo sapiens, UniProt Q13936+Q13698+Q01668+O60840), Activity recorded as 36.6

Entry COC(=O)C1=C(C)NC(C)=C(C(=O)OC)C1c1c(-c2cc(OC)ccc2OC)nc2sccn12 under Voltage-gated L-type calcium channel (Homo sapiens, UniProt Q13936+Q13698+Q01668+O60840) had Activity of 82.9

Record COC(=O)C1=C(C)NC(C)=C(C(=O)OC)C1c1ccccc1[N+](=O)[O-] / Voltage-gated L-type calcium channel (Homo sapiens, UniProt Q13936+Q13698+Q01668+O60840), Activity recorded as 34.4

Known value: Voltage-gated L-type calcium channel (Homo sapiens, UniProt Q13936+Q13698+Q01668+O60840) Activity of the compound CCOC(=O)C1=C(C)NC(C)=C(C(=O)OCC)C1c1c(-c2cc(F)c(F)cc2F)nc2sccn12 equals 7.4

Activity on Voltage-gated L-type calcium channel (Homo sapiens, UniProt Q13936+Q13698+Q01668+O60840) for CCOC(=O)C1=C(C)NC(C)=C(C(=O)OCC)C1c1c(-c2ccc(F)cc2)nc2sc(C)cn12 is 9.1

Recorded Activity for CCOC(=O)C1=C(C)NC(C)=C(C(=O)OCC)C1c1c(-c2cc([N+](=O)[O-])c(Cl)cc2Cl)nc2sc(CC)cn12 on Voltage-gated L-type calcium channel (Homo sapiens, UniProt Q13936+Q13698+Q01668+O60840) was 21.2

Value sought: Activity, system Voltage-gated L-type calcium channel (Homo sapiens, UniProt Q13936+Q13698+Q01668+O60840), item COC(=O)C1=C(C)NC(C)=C(C(=O)OC)C1c1c(-c2ccc(OC(F)(F)F)cc2)nc2sccn12 . Result: 52.3
